# Tested on: osteoclast precursors
# test.summary: Osteoclast tartrate-resistant acid phosphatase assay
# Format: cell-based
# recorded.conditions: Osteoclast; 7-14 days, RANKL and M-CSF
# Method: Diluted compound was transferred to a 384-well black clear bottom plate. […] Tartrate-resistant acid phosphatase activity in the supernatant samples was determined using an acid phosphatase assay kit (Sigma, St. Louis, Mo.). Absorbance was measured at 550 nm using a plate reader. Data was analyzed using Prism software (Graphpad, San Diego, Calif.) to calculate IC50 values.
A collection of compounds and their measured IC50

Look over these answered cases.
CC(C)C(=O)NC(=O)Nc1ccc(Oc2ccnc(NC(=O)N3CCN(C)CC3)c2)cn1 :: < 10 nM
CN(C)CC(=O)Nc1cc(Oc2ccc(NC(=O)NC(=O)C(C)(C)C)nc2)ccn1 :: 100 to 1000 nM
CC(=O)Nc1cc(Oc2ccc(NC(=O)NC(=O)C3(C)CC3)nc2)ccn1 :: < 10 nM
CC(=O)Nc1cc(Oc2ccc(NC(=O)NC(=O)C(C)C)nc2)ccn1 :: 10 to 100 nM
CC(=O)Nc1cc(Oc2ccc(NC(=O)NC(=O)C3(C(F)(F)F)CCC3)nc2)ccn1 :: < 10 nM

Which IC50 value is on record for Cc1nc(NC(=O)NC(=O)C(C)(C)C)ccc1Oc1ccnc(NC(=O)N(C)C)c1 ?
10 to 100 nM

Name the recorded IC50 for CCC(=O)Nc1cc(Oc2ccc(NC(=O)NC(=O)C(C)(C)OC)nc2)ccn1 .
10 to 100 nM
